# MEASUREMENT TARGET: β-catenin (Homo sapiens, UniProt P35222)
# Sequence (P35222 1-781): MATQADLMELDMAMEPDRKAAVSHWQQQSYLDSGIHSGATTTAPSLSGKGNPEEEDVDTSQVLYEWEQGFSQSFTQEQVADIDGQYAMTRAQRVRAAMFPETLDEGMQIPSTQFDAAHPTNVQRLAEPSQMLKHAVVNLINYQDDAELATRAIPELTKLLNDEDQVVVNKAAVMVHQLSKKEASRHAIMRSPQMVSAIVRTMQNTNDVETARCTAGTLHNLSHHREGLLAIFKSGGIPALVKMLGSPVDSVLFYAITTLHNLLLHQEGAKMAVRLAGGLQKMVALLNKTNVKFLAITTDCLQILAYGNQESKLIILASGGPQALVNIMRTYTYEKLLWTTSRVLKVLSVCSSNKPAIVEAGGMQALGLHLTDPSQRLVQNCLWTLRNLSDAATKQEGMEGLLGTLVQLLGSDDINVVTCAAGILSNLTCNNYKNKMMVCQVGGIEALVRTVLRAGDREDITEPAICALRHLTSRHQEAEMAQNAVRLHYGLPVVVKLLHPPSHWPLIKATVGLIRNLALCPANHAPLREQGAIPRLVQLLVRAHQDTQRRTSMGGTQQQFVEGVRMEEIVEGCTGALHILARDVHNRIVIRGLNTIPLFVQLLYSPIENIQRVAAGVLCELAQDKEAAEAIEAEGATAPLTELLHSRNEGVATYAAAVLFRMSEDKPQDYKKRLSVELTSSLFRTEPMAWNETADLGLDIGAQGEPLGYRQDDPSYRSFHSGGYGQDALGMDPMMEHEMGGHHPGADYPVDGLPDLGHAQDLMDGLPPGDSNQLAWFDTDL
# TEST DESCRIPTION: KD50 measurement using competitive fluorescence polarization (FP) with labelled TCF4
# Type: binding
# CONDITION PARAMETERS: fluorescence polarization, β-catenin; read-out: β-Cat FP KD
pKd: −log10 of the molar value. Where a SMILES comes first, the peptide text is derived from it.
pKd reference

* CCCC[C@H](N)C(=O)N[C@@H](Cc1c[nH]c2ccccc12)C(=O)N[C@@H](Cc1ccccc1)C(=O)N[C@@H](CC(C)C)C(=O)N[C@H](C(=O)N[C@@H](CS)C(=O)N[C@@H](Cc1ccccc1)C(=O)N[C@@H](Cc1c[nH]c2ccccc12)C(=O)NCC(=O)O)[C@@H](C)CC [compound 164] (HELM PEPTIDE1{[Nle].W.F.L.I.C.F.W.G}$$$$V2.0) | 6.00 to 6.40

Inquiry: Please indicate pKd recorded for CC[C@H](C)[C@H](NC(=O)[C@H](CC(C)C)NC(=O)[C@H](Cc1ccccc1)NC(=O)[C@H](Cc1c[nH]c2ccccc12)NC(=O)[C@@H](N)CCSC)C(=O)N[C@@H](CO)C(=O)N[C@@H](CO)C(=O)N[C@@H](Cc1c[nH]c2ccccc12)C(=O)O [compound 96] (H-MWFLISSW-OH)
Reply text: 4.52 to 5.00
